Hey, just so you know, these numbers are from patent US20210380703A1.

TARGET_OR_TEST_SYSTEM: human ACVR2A (human, UniProt P27037 20-135, limits assumed); further: test concentration or dose not given here
Sequence (P27037 20-135 limits assumed): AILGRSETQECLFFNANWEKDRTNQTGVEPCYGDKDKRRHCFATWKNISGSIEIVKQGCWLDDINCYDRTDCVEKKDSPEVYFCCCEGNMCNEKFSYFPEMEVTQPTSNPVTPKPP
ASSAY_NAME: ELISA
READOUT_KIND: optical density
Answer as a quantity: numeral, then unit.

Worked set:
365_F04 (antibody, V domains shown, VH/VL only) VH: EVQLLESGGGLVQPGGSLRLSCAASGFTFSSYGMNWVRQAPGKGLEWVAGINYNGGYTGYADSVKGRFTISRDNSKNTLYLQMNSLRAEDTAVYYCARSATWHDTHLDYWGQGTLVTVSS VL: DIQMTQSPSSLSASVGDRVTITCRASQSIVTYVNWYQQKPGKAPKLLIYAATSRASGVPSRFSGSGSGTDFTLTISSLQPEDFATYYCQQSYDTPLTFGGGTKVEIK    2.26 OD
375_D07 (antibody, V domains shown, VH/VL only) VH: EVQLLESGGGLVQPGGSLRLSCAASGFTFSSYGMNWVRQAPGKGLEWVANINYNSGYTGYADSVKGRFTISRDNSKNTLYLQMNSLRAEDTAVYYCARSANWHDTALDYWGQGTLVTVSS VL: DIQMTQSPSSLSASVGDRVTITCRASQSIITYLNWYQQKPGKAPKLLIYAATSRASGVPSRFSGSGSGTDFTLTISSLQPEDFATYYCQQSYDTPLTFGGGTKVEIK    3.56 OD

Next binder, optical density to be filled in.
Request: State its optical density: 376_B05 (antibody, V domains shown, VH/VL only) VH: EVQLLESGGGLVQPGGSLRLSCAASGFTFSSYSMNWVRQAPGKGLEWVANINYNGGYTGYADSVKGRFTISRDNSKNTLYLQMNSLRAEDTAVYYCARSANWHDTALDYWGQGTLVTVSS VL: DIQMTQSPSSLSASVGDRVTITCRASQSIISYVNWYQQKPGKAPKLLIYAATSRASGVPSRFSGSGSGTDFTLTISSLQPEDFATYYCQQSYELPLTFGGGTKVEIK
Response: 3.65 OD
